Each item that follows carries a reported growth.
tested on: OVCAR-5 ovarian; assay: NCI-60 one-dose screen, 48 h (100 = growth as untreated, 0 = no growth, -100 = all killed); settings: 10 µM unless noted
This is part of a sample that, as a whole, favours compounds with a hit. Of some 83,000 tested, about 20% had one in any assay.
Report the value in % with no unit label.

Past entries and their recorded results:
# molecule, resultUnits, growth
data = [
    ("COC(=O)c1cc2c3c(cc(O)c2[nH]1)N(C(=O)C1Cc2cc(OC)c(OC)c(OC)c2N1)CC3CCl (stereo not given)", "%", -61.1),
    ("CCOc1ccccc1C(=O)/C=C/c1cc2ccccc2[nH]c1=O", "%", 5.93),
    ("O=c1c2ccccc2oc2ccc(OCCCCCN3CCCCCC3)cc12", "%", 92),
    ("CNc1cccc2c1C(=O)c1cccc(N)c1C2=O", "%", 73.8),
    ("CCCCC1=c2c([nH]c3ccc(OC)cc23)=NC2C=CC=NC12 (stereo not given)", "%", 106),
]

Let us examine a further case.
Q. Consider the molecule shown here: `N#CCNc1ccc(C(=O)O)cc1` What is its recorded growth?
A. 120

* * *

test system: HOP-92 NSCLC; test: NCI-60 one-dose screen, 48 h; settings: 10 µM unless noted
About 83,000 compounds went through this panel and 20% of them were active in at least one assay; those are over-represented in the sample as a whole. Calls of active or inactive are those of the source. Rule for the calls: active = growth percent below 10; inactive = the rest.
Hi there, use one of these labels in your reply, thanks! yes (1) for active, no (0) for inactive

# smilesStr, category
data = [
    ("CCCCn1c(=O)c(/C=C/C(=O)/C=C/c2ccc(OC)cc2)cc2cc(Cl)ccc21", "no (0)"),
]

Q. Could you kindly confirm the outcome this assay logged for `COc1cc(C(=O)Nc2cc(O)c(C/C=C(\C)CCC=C(C)C)c(O)c2)cc2c1O[C@]1(C)CC[C@@H](O)C(C)(C)[C@H]1C2` ?
A. yes (1)

Q. For this compound, state the assay outcome: `CCCCc1ccc(N=Nc2ccc(OCC[N+](C)(C)C)cc2)cc1`
A. no (0)

Q. GET /call?item= `COc1cc(-c2cn(-c3ccc(Cl)c(Cl)c3)c(=O)[nH]2)cc(OC)c1OC` returns the recorded outcome of this test.
A. no (0)

Q. Tell me the assay call for `CCC1=C[C@H]2CN(CCc3c([nH]c4ccccc34)[C@@](C(=O)OC)(c3cc4c(cc3OC)N(C)[C@H]3[C@@](O)(C(=O)OC)[C@H](OC(C)=O)[C@]5(CC)[C@@H]6C[C@@H]6CN6CC[C@]43[C@@H]65)C2)C1` please.
A. yes (1)

* * *

test system: RXF 393 renal; experiment: NCI-60 one-dose screen, 48 h; conditions: 10 µM unless noted
The panel holds about 83,000 compounds, 20% with a hit somewhere; the sample as a whole holds those more often. Activity calls are given as the source filed them. The calls were made as follows: active = growth percent below 10; inactive = the rest.
Allowed answers: yes for active, no for inactive

# compound, category
rows = [
    ("Cc1nnc(/N=C2\\NC(=O)/C(=C/c3ccc(N(C)C)cc3)S2)s1", "no"),
    ("CC(=O)c1c(OCC#N)ccc2c(C)cc(=O)oc12", "no"),
    ("COCCOCCOCc1n(Cc2ccc3ccccc3n2)c2ccccc2[n+]1Cc1ccc2ccccc2n1", "no"),
    ("O=c1[nH]c2ccccc2cc1-c1nc2ccc(Cl)cc2[nH]1", "no"),
    ("CC(=O)[C@@H]1CC[C@]2(C(=O)O)CC[C@]3(C)[C@H](CC[C@@H]4[C@@]5(C)Cc6c([nH]c7ccccc67)C(C)(C)[C@@H]5CC[C@]43C)[C@@H]12", "no"),
    ("O=C(NC[C@H](O)CN1CCc2ccccc2C1)c1cc(NC2COC2)ncn1", "no"),
    ("COc1ccc(/C=C/C(=O)Nc2ncnc3nc[nH]c23)cc1", "no"),
    ("COc1ccc2cc(/C=C3\\N=C(c4cc(OC)c(OC)c(OC)c4)OC3=O)c(OC)nc2c1", "no"),
]

Q. Dear colleague, could you share the recorded outcome for `Cc1c(Cl)cccc1NC(=O)c1sc2nc3c(cc2c1N)CCCCCC3` when you have a moment?
A. no

Q. Hey, what did the test say about `C=C1C(=O)O[C@H]2[C@H]1CC/C(COC(=O)CCC(=O)OC/C1=C/CC[C@@]3(C)O[C@H]3[C@H]3OC(=O)C(=C)[C@@H]3CC1)=C\CC[C@@]1(C)O[C@@H]21` ?
A. yes

Q. What was the test verdict on `COC(=O)/C=C1\SC(=Nc2ccc(C(F)(F)F)cc2)N(CCc2c[nH]c3ccccc23)C1=O` ?
A. yes

Q. # fetch the recorded call for O=C1CC(c2ccc(O)c(O)c2)Oc2cc(O)c([C@@H]3O[C@H](CO)[C@@H](O)[C@H](O)[C@H]3O)c(O)c21 (some centres undefined) here
A. no

Q. Tell me the assay call for `C=CCn1c(CN2CCN(c3cc4c(cc3F)c(=O)c(C(=O)O)cn4C3CC3)CC2)n[nH]c1=S` please.
A. no

Q. Each compound tested received a call. Report the one for `N#Cc1ccc(N2Cc3cc(Cl)ccc3OC3=C2C(=O)N(Cc2ccccc2)C3=O)cc1` .
A. yes
